System: normal primary NK cells, pool 1 (3 donors), resting (IL-2 0 ng/mL)
Assay: percent inhibition of viability; higher = more inhibition
Settings: 72 h; 100 nM

COMPOUND | percent inhibition of viability [%]
O=C(O)CCCCC(CCSCc1ccccc1)SCc1ccccc1 (stereo not drawn) [CPI-613] (max concentration tested 10000 nM) | 13.2
O=C(Nc1ccc(-c2ccnc(Nc3ccc(N4CCOCC4)cc3)n2)cc1)C1CCCN1 (stereo not drawn) [XL019] (max concentration tested 10000 nM) | -4.73
COc1cc2/c(=N/c3ccc(Br)cc3F)nc[nH]c2cc1OCC1CCN(C)CC1 [Vandetanib] (max concentration tested 1000 nM) | -19.4
CC[C@@H]1C(=O)N(C)c2cnc(Nc3ccc(C(=O)NC4CCN(C)CC4)cc3OC)nc2N1C1CCCC1 [BI 2536] (max concentration tested 1000 nM) | -10.2
Nc1nc(Cl)nc2c1ncn2[C@H]1C[C@H](O)[C@@H](CO)O1 [Cladribine] (max concentration tested 1000 nM) | 90.2
CNC(=O)c1cc(Oc2ccc(NC(=O)Nc3ccc(Cl)c(C(F)(F)F)c3)c(F)c2)ccn1 [Regorafenib] (max concentration tested 10000 nM) | -7.13
c1ccc2c(CCNc3ccc(Nc4ccncc4)cc3)c[nH]c2c1 [Serdemetan] (max concentration tested 10000 nM) | -16.5
O=c1[nH]cc(F)c(=O)[nH]1 [Fluorouracil] (max concentration tested 10000 nM) | 16.1

###

System: IMC-1 (IL-2 20 ng/mL)
Experiment: drug sensitivity score (DSS) (DSS units); higher = more sensitive; extreme values may be limits of the assay
Settings: 72 h
Hi, to clarify the labels: 1.0 covers drug sensitivity score from 0.6 upward, 0.0 covers anything below 0.6.

COMPOUND | ASSIGNED_CLASS
N#Cc1ccc(COC[C@H]2O[C@@H](n3c(NCc4ccc(Cl)c(Cl)c4)nc4c(N)ncnc43)[C@H](O)[C@@H]2O)cc1 (max concentration tested 10000 nM) | 1.0
COc1cc2/c(=N/c3ccc(Br)cc3F)nc[nH]c2cc1OCC1CCN(C)CC1 [Vandetanib] (max concentration tested 1000 nM) | 0.0
CN(C)CCOc1ccc(/C(=C(/CCCl)c2ccccc2)c2ccccc2)cc1 [Toremifene] (max concentration tested 10000 nM) | 0.0
CCN1CCN(Cc2ccc(Nc3ncc(F)c(-c4cc(F)c5nc(C)n(C(C)C)c5c4)n3)nc2)CC1 [Abemaciclib] (max concentration tested 2500 nM) | 1.0
c1ccc2c(CCNc3ccc(Nc4ccncc4)cc3)c[nH]c2c1 [Serdemetan] (max concentration tested 10000 nM) | 1.0
CC(=O)O[C@@]12CO[C@@H]1C[C@H](O)[C@@]1(C)C(=O)[C@H](O)C3=C(C)[C@@H](OC(=O)[C@H](O)[C@@H](NC(=O)OC(C)(C)C)c4ccccc4)C[C@@](O)([C@@H](OC(=O)c4ccccc4)[C@H]21)C3(C)C [Docetaxel] (max concentration tested 1000 nM) | 1.0
Oc1ncnc2[nH]ncc12 [Allopurinol] (max concentration tested 10000 nM) | 0.0
CNC(=O)c1cc(COc2nnc(Nc3ccc(Cl)cc3)c3ccoc23)ccn1 [Telatinib] (max concentration tested 10000 nM) | 0.0
COc1cc(OC2CCN(C)CC2)ccc1Nc1ncc2c(n1)n(C1CCCC1)c(=O)n2C [AZ 3146] (max concentration tested 10000 nM) | 1.0
CC(C)(C)c1cnc(CSc2cnc(NC(=O)C3CCNCC3)s2)o1 [SNS-032] (max concentration tested 10000 nM) | 1.0
Cc1cnc(Nc2ccc(OCCN3CCCC3)cc2)nc1Nc1cccc(S(=O)(=O)NC(C)(C)C)c1 [Fedratinib] (max concentration tested 10000 nM) | 1.0
CN(C)C1CCN(C(=O)c2ccc(NC(=O)Nc3ccc(-c4nc(N5CCOCC5)nc(N5CCOCC5)n4)cc3)cc2)CC1 [Gedatolisib] (max concentration tested 1000 nM) | 1.0

###

Test system: normal primary NK cells, pool 3 (3 donors) (IL-2 2.5 ng/mL)
Assay: percent inhibition of viability; higher = more inhibition
Details: 72 h; 1 nM

MOLECULE | percent inhibition of viability (%)
COCC[n+]1c2c(n(Cc3cnccn3)c1C)C(=O)c1ccccc1C2=O [YM155] (max concentration tested 10000 nM) | -2.28
c1ccc2c(CCNc3ccc(Nc4ccncc4)cc3)c[nH]c2c1 [Serdemetan] (max concentration tested 10000 nM) | -9.21
CS(=O)(=O)c1ccc(C(=O)Nc2ccc(Cl)c(-c3ccccn3)c2)c(Cl)c1 [Vismodegib] (max concentration tested 10000 nM) | -5.07

###

Tested on: normal primary NK cells, pool 1 (3 donors), resting (IL-2 0 ng/mL)
Experiment: percent inhibition of viability; higher = more inhibition
Details: 72 h; 1 nM
Reported percent inhibition of viability values for a set of compounds

COMPOUND | percent inhibition of viability [%]
Nc1cc(C(F)(F)F)c(-c2cc(N3CCOCC3)nc(N3CCOCC3)n2)cn1 [Buparlisib] (max concentration tested 10000 nM) | 6.15
CNC(=O)c1cc(Oc2ccc(NC(=O)Nc3ccc(Cl)c(C(F)(F)F)c3)c(F)c2)ccn1 [Regorafenib] (max concentration tested 10000 nM) | 6.64
Cc1sc2c(c1C)C(c1ccc(Cl)cc1)=N[C@@H](CC(=O)OC(C)(C)C)c1nnc(C)n1-2 [(+)JQ1] (max concentration tested 10000 nM) | -3.74
Nc1nc2[nH]cnc2c(=S)[nH]1 [Thioguanine] (max concentration tested 10000 nM) | 1.38
Nc1nccc(-c2c(-c3ccc(F)cc3)ncn2C2CCCCC2)n1 (max concentration tested 10000 nM) | -19.6

###

System: NKL (IL-2 2.5 ng/mL)
Experiment: relative IC50 (inflection point of fitted viability curve, relative to fitted max inhibition); higher = less sensitive
Details: 72 h
Measured relative IC50, listed per entry for reference.
ATTRIBUTE_MEASURED: relative IC50

MOLECULE | TARGET_SYSTEM | VALUE_OBSERVED
Cc1cc(C)c(/C=C2\C(=O)Nc3ccccc32)[nH]1 | NKL (IL-2 2.5 ng/mL) | > 10 µM
CC(C)[C@H]1C(=O)N[C@@H](CCCNC(=N)N)C(=O)NCC(=O)N[C@@H](CC(=O)O)C(=O)N[C@H](Cc2ccccc2)C(=O)N1C [Cilengitide] | NKL (IL-2 2.5 ng/mL) | > 10 µM
CC(C)(O)CC(=O)NCCn1ccc2ncnc(Nc3ccc(Oc4cccc(C(F)(F)F)c4)c(Cl)c3)c21 | NKL (IL-2 2.5 ng/mL) | > 2.5 µM

###

System: KAI3 (IL-2 2.5 ng/mL)
Experiment: percent inhibition of viability; higher = more inhibition
Settings: 72 h; 10 nM
ATTRIBUTE_MEASURED: percent inhibition of viability (%)

COMPOUND | TARGET_SYSTEM | UNIT_STRING | VALUE_OBSERVED
O=C(O)CCCCC(CCSCc1ccccc1)SCc1ccccc1 (stereo not drawn) [CPI-613] (max concentration tested 10000 nM) | KAI3 (IL-2 2.5 ng/mL) | % | -5.51
CC(=O)O[C@@]12CO[C@@H]1C[C@H](O)[C@@]1(C)C(=O)[C@H](O)C3=C(C)[C@@H](OC(=O)[C@H](O)[C@@H](NC(=O)OC(C)(C)C)c4ccccc4)C[C@@](O)([C@@H](OC(=O)c4ccccc4)[C@H]21)C3(C)C [Docetaxel] (max concentration tested 1000 nM) | KAI3 (IL-2 2.5 ng/mL) | % | 46.7
CN1CCC(CNc2ccc3ncc(-c4cccc(OC(F)(F)F)c4)n3n2)CC1 [SGI-1776] (max concentration tested 10000 nM) | KAI3 (IL-2 2.5 ng/mL) | % | -2.13

###

# reported relative IC50; entries follow
Tested on: KAI3 (IL-2 2.5 ng/mL)
Experiment: relative IC50 (inflection point of fitted viability curve, relative to fitted max inhibition); higher = less sensitive
Settings: 72 h

MOLECULE | UNIT_STRING | RELATION_OPERATOR | relative IC50
Cc1sc2c(c1C)C(c1ccc(Cl)cc1)=N[C@@H](CC(=O)OC(C)(C)C)c1nnc(C)n1-2 [(+)JQ1] | nM | = | 362
C[C@@H]1CCN(C(=O)CC#N)C[C@@H]1N(C)c1ncnc2[nH]ccc12 [Tofacitinib] | nM | = | 42.3
CN1CCC(COc2cnc(-c3cccc(Cn4nc(-c5cccc(C#N)c5)ccc4=O)c3)nc2)CC1 | nM | > | 1000
C[C@@H](Oc1cc(-n2cnc3ccc(CN4CCN(C)CC4)cc32)sc1C(N)=O)c1ccccc1C(F)(F)F | nM | = | 187
CCn1c(=O)c(-c2cc[nH]n2)cc2c(C)nc(N)nc21 [Voxtalisib] | nM | = | 818
CN(C)CCOc1ccc(/C(=C(/CCCl)c2ccccc2)c2ccccc2)cc1 [Toremifene] | nM | = | 2030
COc1c(C)cnc(Cn2cnc3c(Cl)nc(N)nc32)c1C [BIIB021] | nM | = | 54.3

Every entry's value here was drawn from the supplement of paper PMC5908809.
